# Tested on: M. intracellulare
# experimental details: Antibacterial activity (MIC) against M. intracellulare
# Assay type: cell-based, Mycobacterium intracellulare
# condition parameters: M. intracellulare N-345; Table 3
test readout: MIC (µg/mL)
The answer is to be given in µg/mL; state only the numeric part.

Consider the reported MIC for these compounds:
Cc1c(N2CC3CCCNC3C2)c(F)cc2c(=O)c(C(=O)O)cn([C@@H]3C[C@@H]3F)c12 (stereo partly shown); 0.78
CO[C@H]1/C=C/O[C@@]2(C)Oc3c(C)c(O)c4c(O)c(c(/C=N/N5CCN(C)CC5)c(O)c4c3C2=O)NC(=O)/C(C)=C\C=C\[C@H](C)[C@H](O)[C@@H](C)[C@@H](O)[C@@H](C)[C@H](OC(C)=O)[C@@H]1C [RFP, rifampicin, reference compound]; 3.13
Cc1c(N2CC3CCCNC3C2)c(F)cc2c(=O)c(C(=O)O)cn(C3CC3)c12 (stereo not shown); 0.39

Turning now to a further compound:
The reported MIC of the compound C[C@H]1COc2c(N3CC(N)C4(CC4)C3)c(F)cc3c(=O)c(C(=O)O)cn1c23 (stereo partly shown) was 6.25

###

MIC reference
# Tested on: Mycobacterium tuberculosis (RFP sensitive)
# experimental details: Antibacterial activity (MIC) against Mycobacterium tuberculosis (RFP sensitive)
# Assay type: cell-based
# condition parameters: M. tuberculosis No. 41; Table 5
The answer is to be given in ng/mL; state only the numeric part.

Consider the reported MIC for these compounds:
COc1c(N2CC(N)C3(CC3)C2)c(F)cc2c(=O)c(C(=O)O)cn([C@@H]3C[C@@H]3F)c12 (some centres unmarked); 6
Cc1c(N2CC(N)C3(CC3)C2)c(F)cc2c(=O)c(C(=O)O)cn([C@@H]3C[C@@H]3F)c12 (some centres unmarked); 6
O=C(O)c1cn([C@@H]2C[C@@H]2F)c2c(Cl)c(N3CC4CCCNC4C3)c(F)cc2c1=O (some centres unmarked); 6

Record for NC1CN(c2c(F)cc3c(=O)c(C(=O)O)cn(C4CC4)c3c2Cl)CC12CC2 (centres unmarked) under target or system Mycobacterium tuberculosis (RFP sensitive): MIC reported as 6

Record for CC1COc2c(N3CCN(C)CC3)c(F)cc3c(=O)c(C(=O)O)cn1c23 (centres unmarked) [OFLX, OFLOXAIN, reference compound] under target or system Mycobacterium tuberculosis (RFP sensitive): MIC reported as 100

###

# Tested on: Mycobacterium tuberculosis (RFP sensitive)
# experimental details: Antibacterial activity (MIC) against Mycobacterium tuberculosis (RFP sensitive)
# Assay type: cell-based
# condition parameters: M. tuberculosis No. 41; Table 5
MIC reference

Consider the reported MIC for these molecules:
COc1c(N2CC3CCCNC3C2)c(F)cc2c(=O)c(C(=O)O)cn([C@@H]3C[C@@H]3F)c12 (stereo partly shown); 0.013 mg/L
COc1c(N2CC3CCCNC3C2)c(F)cc2c(=O)c(C(=O)O)cn(C3CC3)c12 (stereo not shown); 0.025 mg/L
Cc1c(N2CC(N)C3(CC3)C2)c(F)cc2c(=O)c(C(=O)O)cn(C3CC3)c12 (stereo not shown); 0.013 mg/L

Turning now to a further molecule:
The reported MIC of the molecule Cc1c(N2CC3CCCNC3C2)c(F)cc2c(=O)c(C(=O)O)cn([C@@H]3C[C@@H]3F)c12 (stereo partly shown) was <0.003 mg/L

###

# Tested on: Mycobacterium tuberculosis (RFP sensitive)
# experimental details: Antibacterial activity (MIC) against Mycobacterium tuberculosis (RFP sensitive)
# Type: cell-based
# condition parameters: M. tuberculosis No. 43; Table 5
log10 MIC reference
Values reflect log10 of reported MIC (µg/mL).

Consider the reported log10 MIC for these molecules:
NC1CN(c2c(F)cc3c(=O)c(C(=O)O)cn([C@@H]4C[C@@H]4F)c3c2Cl)CC12CC2 (some centres unmarked); -0.70
Cc1c(N2CC(N)C3(CC3)C2)c(F)cc2c(=O)c(C(=O)O)cn([C@@H]3C[C@@H]3F)c12 (some centres unmarked); -1.00
Cc1c(N2CC(N)C3(CC3)C2)c(F)cc2c(=O)c(C(=O)O)cn(C3CC3)c12 (centres unmarked); -0.41
NC1CN(c2c(F)cc3c(=O)c(C(=O)O)cn(C4CC4)c3c2Cl)CC12CC2 (centres unmarked); -0.11

The reported log10 MIC of the molecule Cc1c(N2CC3CCCNC3C2)c(F)cc2c(=O)c(C(=O)O)cn(C3CC3)c12 (centres unmarked) was -1.00

The reported log10 MIC of the molecule Cc1c(N2CC3CCCNC3C2)c(F)cc2c(=O)c(C(=O)O)cn([C@@H]3C[C@@H]3F)c12 (some centres unmarked) was -1.30

The reported log10 MIC of the molecule COc1c(N2CC(N)C3(CC3)C2)c(F)cc2c(=O)c(C(=O)O)cn([C@@H]3C[C@@H]3F)c12 (some centres unmarked) was -0.11

###

# Tested on: M. avium
# experimental details: Antibacterial activity (MIC) against M. avium
# Assay type: cell-based, Mycobacterium avium
# condition parameters: M. avium N-357; Table 3
test readout: MIC
Provide the measurement as a number trailed by its unit.

COc1c(N2CC3CCCNC3C2)c(F)cc2c(=O)c(C(=O)O)cn([C@@H]3C[C@@H]3F)c12 (some centres unmarked); 0.39 µg/mL
CC1COc2c(N3CCN(C)CC3)c(F)cc3c(=O)c(C(=O)O)cn1c23 (centres unmarked) [OFLX, OFLOXAIN, reference compound]; 3.13 µg/mL
Cc1c(N2CC(N)C3(CC3)C2)c(F)cc2c(=O)c(C(=O)O)cn([C@@H]3C[C@@H]3F)c12 (some centres unmarked); 0.20 µg/mL
COc1c(N2CC3CCCNC3C2)c(F)cc2c(=O)c(C(=O)O)cn(C3CC3)c12 (centres unmarked); 0.39 µg/mL

Turning now to a further molecule:
The reported MIC of the molecule O=C(O)c1cn([C@@H]2C[C@@H]2F)c2c(Cl)c(N3CC4CCCNC4C3)c(F)cc2c1=O (some centres unmarked) was 0.20 µg/mL

###

# System: Mycobacterium tuberculosis (RFP sensitive)
# experimental details: Antibacterial activity (MIC) against Mycobacterium tuberculosis (RFP sensitive)
# Assay type: cell-based
# condition parameters: M. tuberculosis No. 41; Table 5
MIC reference

Record for Cc1c(N2CC3CCCNC3C2)c(F)cc2c(=O)c(C(=O)O)cn(C3CC3)c12 (stereo not drawn) [Compd. 9] under target or system Mycobacterium tuberculosis (RFP sensitive): MIC reported as <3 ng/mL

Record for O=C(O)c1cn(C2CC2)c2c(Cl)c(N3CC4CCCNC4C3)c(F)cc2c1=O (stereo not drawn) [Compd. 1] under target or system Mycobacterium tuberculosis (RFP sensitive): MIC reported as <3 ng/mL

Record for NC1CN(c2c(F)cc3c(=O)c(C(=O)O)cn([C@@H]4C[C@@H]4F)c3c2Cl)CC12CC2 (stereo partly drawn) [Compd. 4] under target or system Mycobacterium tuberculosis (RFP sensitive): MIC reported as <3 ng/mL

###

# System: Mycobacterium tuberculosis (RFP sensitive)
# experimental details: Antibacterial activity (MIC) against Mycobacterium tuberculosis (RFP sensitive)
# Assay type: cell-based
# condition parameters: M. tuberculosis No. 43; Table 5
MIC reference
The answer is to be given in µg/mL; state only the numeric part.

Consider the reported MIC for these compounds:
COc1c(N2CC3CCCNC3C2)c(F)cc2c(=O)c(C(=O)O)cn([C@@H]3C[C@@H]3F)c12 (stereo partly shown); 0.78
O=C(O)c1cn([C@@H]2C[C@@H]2F)c2c(Cl)c(N3CC4CCCNC4C3)c(F)cc2c1=O (stereo partly shown); 0.10
COc1c(N2CC3CCCNC3C2)c(F)cc2c(=O)c(C(=O)O)cn(C3CC3)c12 (stereo not shown); 0.78

Turning now to a further compound:
The reported MIC of the compound O=C(O)c1cn(C2CC2)c2c(Cl)c(N3CC4CCCNC4C3)c(F)cc2c1=O (stereo not shown) was 0.20
